We begin with a simple list: items and their reported furin cleavage Z-score.
- MEASURED_ON: furin, P09958
- Sequence (P09958 whole entry): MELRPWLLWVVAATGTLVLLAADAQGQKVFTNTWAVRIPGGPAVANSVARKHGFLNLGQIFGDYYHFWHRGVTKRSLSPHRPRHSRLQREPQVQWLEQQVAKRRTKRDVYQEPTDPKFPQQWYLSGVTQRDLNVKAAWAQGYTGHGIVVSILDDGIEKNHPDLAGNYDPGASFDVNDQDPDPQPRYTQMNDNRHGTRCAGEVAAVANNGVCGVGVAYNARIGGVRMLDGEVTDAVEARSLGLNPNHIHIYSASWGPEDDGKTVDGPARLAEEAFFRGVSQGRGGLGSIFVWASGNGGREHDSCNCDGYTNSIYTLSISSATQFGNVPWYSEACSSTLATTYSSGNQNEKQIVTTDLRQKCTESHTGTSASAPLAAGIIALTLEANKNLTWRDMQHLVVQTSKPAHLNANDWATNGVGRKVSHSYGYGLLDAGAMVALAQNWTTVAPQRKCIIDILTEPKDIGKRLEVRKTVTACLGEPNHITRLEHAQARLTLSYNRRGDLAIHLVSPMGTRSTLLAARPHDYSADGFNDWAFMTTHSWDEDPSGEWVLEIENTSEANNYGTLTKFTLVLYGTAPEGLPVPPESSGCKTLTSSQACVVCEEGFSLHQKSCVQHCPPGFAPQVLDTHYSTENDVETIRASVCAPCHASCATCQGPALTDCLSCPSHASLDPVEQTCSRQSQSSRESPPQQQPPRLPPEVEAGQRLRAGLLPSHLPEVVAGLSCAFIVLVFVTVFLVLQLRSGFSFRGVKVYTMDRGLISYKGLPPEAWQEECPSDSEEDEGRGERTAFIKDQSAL
- ASSAY: furin cleavage Z-score vs untreated control; higher = more cleavage, active = 3.5 or more, inactive = 1 or less, 8 variable residues between constant flanks;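 also: purified furin at 1:10 enzyme:substrate in 50 mM HEPES pH 7.5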
- CONDITIONS_USED: 30 min
The other results are listed elsewhere or left out. No count for the full screen is at hand.
Note: the reply should be a number with no unit written.

In the examples that follow, each entry is paired with its recorded furin cleavage Z-score.
{"SEQUENCE_INPUT": "CAEVPCHRPWAGNASASA [HC2408]", "furin cleavage Z-score": 0.457}
{"SEQUENCE_INPUT": "CALPQRAYALAGNASASA [HC562]", "furin cleavage Z-score": 0.909}
{"SEQUENCE_INPUT": "CAEAIYQCCDAGNASASA [HC1489]", "furin cleavage Z-score": 0.702}
{"SEQUENCE_INPUT": "CAIPARELRNAGNASASA [FS-254]", "furin cleavage Z-score": "-8.8e-05"}
{"SEQUENCE_INPUT": "CAGPVIQMYTAGNASASA [HC708]", "furin cleavage Z-score": 0.0794}

Problem: // query furin cleavage Z-score value for entry CARPRRMTPFAGNASASA [FS-2744]
Solution: 4.82

Problem: Would you kindly repeat that for CADVCCSMSYAGNASASA [HC1991] ?
Solution: 1.23

Problem: Next up: CARRGRPGLKAGNASASA [FS-2066]
Solution: -0.201

Problem: Next record, please: CATKLLLAVFAGNASASA [HC605]
Solution: 0.635

Problem: Thanks! And CARQGRIARVAGNASASA [FS-1608] ?
Solution: 3.61

Problem: Input CALTVTQLLRAGNASASA [HC1136]
Solution: -0.0718

Problem: Please answer likewise for CAEYVVCCSMAGNASASA [HC2129]
Solution: -0.778

Problem: Same question, CAVVLLLFAGAGNASASA [HC347] this time
Solution: -0.682

Problem: Now this one: CAEDAASLRAAGNASASA [HC1536]
Solution: 0.0662

Problem: Check CARPRREAPFAGNASASA [FS-2742] too.
Solution: 8.49

Problem: Let us now turn to CALSIRDARMAGNASASA [FS-1466]
Solution: -0.151

Problem: Here is the next sequence: CARLKKKVKQAGNASASA [FS-3196]
Solution: 0.354

Problem: And CARIERVARVAGNASASA [FS-187] ?
Solution: 4.15
